System: advanced glycation end-products (AGEs) formation in bovine serum albumin (BSA)-glucose system
Assay type: biochemical
Details: compounds; 60 °C, 2 days; fluorescence ex 350/em 450 nm; mean ± SD (n = 3); read-out: IC50 BSA-Glucose
Each record here notes measured IC50.
testReadout: IC50 (µM)

compound | testReadout | recordedMeasurement
O=c1cc(-c2ccc(O)cc2)oc2c([C@@H]3O[C@H](CO)[C@@H](O)[C@H](O)[C@H]3O)c(O)cc(O)c12 [Compound 6, vitexin] | IC50 | 19.5
O=C(O)c1ccc(O)c(O)c1 [Compound 2, protocatechuic acid] | IC50 | 79.8
O=c1cc(-c2ccc(O)c(O)c2)oc2c([C@@H]3O[C@H](CO)[C@@H](O)[C@H](O)[C@H]3O)c(O)cc(O)c12 [Compound 7, orientin] | IC50 | 9.61
O=C(O)c1cc(O)c(O)c(O)c1 [Compound 8, gallic acid] | IC50 | 192
O=c1cc(-c2ccc(O)cc2)oc2cc(O)c([C@@H]3O[C@H](CO)[C@@H](O)[C@H](O)[C@H]3O)c(O)c12 [Compound 5, isovitexin] | IC50 | 20.2
O=C(O)/C=C/c1ccc(O)c(O)c1 [Compound 9, caffeic acid] | IC50 | 54.5
O=c1cc(-c2ccc(O)cc2)oc2c([C@@H]3O[C@H](CO)[C@@H](O[C@@H]4O[C@H](CO)[C@@H](O)[C@H](O)[C@H]4O)[C@H](O)[C@H]3O)c(O)cc(O)c12 [Compound 11, vitexin-4″-O-glucoside] | IC50 | 14.5

====

System: advanced glycation end-products (AGEs) formation in bovine serum albumin (BSA)-glucose system
Type: biochemical
pIC50: −log10 of the molar value.
testReadout: pIC50

compound | recordedMeasurement
C[C@@H]1O[C@@H](O[C@@H]2[C@@H](O)[C@H](O)[C@@H](CO)O[C@H]2c2c(O)cc(O)c3c(=O)cc(-c4ccc(O)cc4)oc23)[C@H](O)[C@H](O)[C@H]1O [Compound 10, vitexin-2″-O-rhamnoside] | 4.53
